- assay-target: ASCT2 (Rattus norvegicus (Rat), UniProt D3ZJ25)
- Sequence (D3ZJ25 whole entry): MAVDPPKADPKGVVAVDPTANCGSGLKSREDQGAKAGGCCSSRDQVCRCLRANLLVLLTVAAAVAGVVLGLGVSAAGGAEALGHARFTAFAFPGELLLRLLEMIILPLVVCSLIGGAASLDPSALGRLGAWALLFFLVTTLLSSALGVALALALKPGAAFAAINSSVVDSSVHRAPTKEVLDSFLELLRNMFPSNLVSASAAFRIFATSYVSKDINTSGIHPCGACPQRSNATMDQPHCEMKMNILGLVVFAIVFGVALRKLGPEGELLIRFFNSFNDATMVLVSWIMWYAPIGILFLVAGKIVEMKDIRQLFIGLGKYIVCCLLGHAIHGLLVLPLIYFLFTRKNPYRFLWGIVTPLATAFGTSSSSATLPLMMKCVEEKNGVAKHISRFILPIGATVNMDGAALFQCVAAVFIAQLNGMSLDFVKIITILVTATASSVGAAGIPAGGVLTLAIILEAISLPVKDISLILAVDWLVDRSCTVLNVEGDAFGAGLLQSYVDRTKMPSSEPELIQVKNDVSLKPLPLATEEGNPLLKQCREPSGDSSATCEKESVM
- assay-info: Inhibition of ASCT2-mediated glutamine uptake in C6 (rat) cells
- setup-conditions: C6 (rat) cells; glutamine uptake; mean of at least 3 biological replicates
assay-readout: IC50 (µM)

N[C@H](CCN(Cc1ccccc1OCc1ccc(Cl)cc1)Cc1ccccc1OCc1ccc(Cl)cc1)C(=O)O ... 20.1
N[C@H](CCN(Cc1ccccc1OCc1cccc(O)c1)Cc1ccccc1OCc1cccc(Cl)c1)C(=O)O ... 12.7
COc1ccc(Oc2ccccc2CN(CC[C@@H](N)C(=O)O)Cc2ccccc2Oc2ccc(OC)cc2)cc1 ... 8.7
Cc1ccc(Oc2ccccc2CN(CC[C@@H](N)C(=O)O)Cc2ccccc2Oc2ccc(F)cc2)cc1 ... 10.5
N[C@H](CCN(Cc1ccccc1OCc1ccc(F)cc1)Cc1ccccc1OCc1ccc(F)cc1)C(=O)O ... 11.2
Cc1ccccc1COc1ccccc1CN(CC[C@@H](N)C(=O)O)Cc1ccccc1OCc1ccccc1C ... 41.7
Cc1cccc(COc2ccccc2CN(CC[C@@H](N)C(=O)O)Cc2ccccc2OCc2cccc(C)c2)c1 ... 9

====

- Test system: human CRC cell lines
- assay-info: Follow-up viability screening (MultiTox Glo, sulforhodamine B)
- Assay type: cell-based
- setup-conditions: four human CRC cell lines; 48 hrs; MultiTox Glo; read-out: EC50, cellular viability
- Procedure: Viability was evaluated using a commercially available chemiluminescent reagents (CellTiter-Glo, Promega Corp. G7572; MultiTox Glo, Promega Corp. G9270) in 96-well plate format according to the manufacturers protocol. […] Subsequently, CellTiter-Glo reagent was added and the plates were read using a plate reader (BioTek Synergy 4) with standard settings. Each set of conditions was replicated at least three times, technically and biologically. Error is reported as standard deviation (SD). […]
pEC50: −log10 of the molar value.
assay-readout: pEC50

Cc1cccc(COc2ccccc2CN(CCC(N)C(=O)O)Cc2ccccc2OCc2cccc(C)c2)c1 (stereo not shown) ... 4.82 to 5.05

====

- assay-target: ASCT2 (Homo sapiens (Human), UniProt Q15758)
- Sequence (Q15758 whole entry): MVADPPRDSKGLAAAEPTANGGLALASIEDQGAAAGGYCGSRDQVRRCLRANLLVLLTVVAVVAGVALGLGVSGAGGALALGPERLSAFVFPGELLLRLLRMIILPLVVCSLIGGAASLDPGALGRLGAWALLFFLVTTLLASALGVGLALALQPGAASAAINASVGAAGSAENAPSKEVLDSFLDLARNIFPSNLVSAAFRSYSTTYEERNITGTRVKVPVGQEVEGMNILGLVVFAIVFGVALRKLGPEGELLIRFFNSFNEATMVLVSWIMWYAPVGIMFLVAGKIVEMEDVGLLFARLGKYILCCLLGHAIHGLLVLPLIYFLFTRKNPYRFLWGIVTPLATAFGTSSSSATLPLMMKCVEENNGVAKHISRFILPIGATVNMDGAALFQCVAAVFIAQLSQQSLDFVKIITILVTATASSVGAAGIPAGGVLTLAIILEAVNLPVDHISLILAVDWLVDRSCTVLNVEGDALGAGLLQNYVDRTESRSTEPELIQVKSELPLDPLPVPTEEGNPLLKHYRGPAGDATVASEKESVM
- assay-info: Inhibition of ASCT2-mediated 3H-glutamine uptake in live HEK293 (human) cells
- Format: cell-based
- setup-conditions: HEK293 (human) cells; glutamine uptake; mean of at least 3 biological replicates; read-out: IC50 (human)
assay-readout: IC50 (µM)

N[C@H](CCN(Cc1ccccc1Oc1cccc(Cl)c1)Cc1ccccc1Oc1cccc(Cl)c1)C(=O)O [Compound 7] ... 26
N[C@H](CCN(Cc1ccccc1OCc1cccc(O)c1)Cc1ccccc1OCc1cccc(Cl)c1)C(=O)O [Compound 14] ... 50.8
N[C@H](CCN(Cc1ccccc1OCc1ccccc1Cl)Cc1ccccc1OCc1ccccc1Cl)C(=O)O [Compound 13] ... 40.1
N[C@H](CCN(Cc1ccccc1Oc1ccccn1)Cc1ccccc1Oc1ccccn1)C(=O)O [Compound 11] ... 59.6
Cc1ccccc1COc1ccccc1CN(CC[C@@H](N)C(=O)O)Cc1ccccc1OCc1ccccc1C [Compound 16] ... 25.6
COc1cccc(COc2ccccc2CN(CC[C@@H](N)C(=O)O)Cc2ccccc2OCc2cccc(OC)c2)c1 [Compound 12] ... 7.2
Cc1ccc(Oc2ccccc2CN(CC[C@@H](N)C(=O)O)Cc2ccccc2Oc2ccc(F)cc2)cc1 [Compound 10] ... 142
N[C@H](CCN(Cc1ccccc1OCc1cccnc1)Cc1ccccc1OCc1cccnc1)C(=O)O [Compound 22] ... 89.1
N[C@H](CCN(Cc1ccccc1OCc1ccc(Cl)cc1)Cc1ccccc1OCc1ccc(Cl)cc1)C(=O)O [Compound 15] ... 33.7
N[C@H](CCN(Cc1ccccc1OCc1ccccn1)Cc1ccccc1OCc1ccccn1)C(=O)O [Compound 21] ... 48.3
COc1ccc(Oc2ccccc2CN(CC[C@@H](N)C(=O)O)Cc2ccccc2Oc2ccc(OC)cc2)cc1 [Compound 6] ... 11.9
Cc1ccc(COc2ccccc2CN(CC[C@@H](N)C(=O)O)Cc2ccccc2OCc2ccc(C)cc2)cc1 [Compound 18] ... 17.5
N[C@H](CCN(Cc1ccccc1Oc1ccccc1F)Cc1ccccc1Oc1ccccc1F)C(=O)O [Compound 8] ... 33.8
COc1cccc(Oc2ccccc2CN(CC[C@@H](N)C(=O)O)Cc2ccccc2Oc2ccccc2OC)c1 [Compound 5] ... 57.2

====

- assay-info: V-9302 concentration in whole blood with time
- Assay type: in vivo, mouse
- setup-conditions: mouse, whole blood; single dose 75 mg/kg, healthy mice
assay-readout: half-life

Cc1cccc(COc2ccccc2CN(CCC(N)C(=O)O)Cc2ccccc2OCc2cccc(C)c2)c1 (stereo not shown) ... ~360 min
